Tested on: MCF7
Experiment Summary: NCI tumour cell line growth inhibition, 48 h
The source made the active and inactive calls. Cut-off read from the data, not from the text of the source: active = GI50 up to about 1.1 µM and inactive = higher.
Could you please pick one outcome from this set? active, inactive

Reference set (5 entries):
>>> discrete_label("O=[N+]([O-])/C=C/c1ccc2ccccc2c1")
"inactive"
>>> discrete_label("c1ccc2[nH]c(-c3cscn3)nc2c1 [THIABENDAZOLE]")
"inactive"
>>> discrete_label("CC(O)C(NC(=O)C(CS)NC(=O)C(CO)NC(=O)C(CCCCN)NC(=O)C(Cc1c[nH]c2ccccc12)NC(=O)C(Cc1ccc(O)cc1)NC(=O)C(CS)NC(=O)C(N)Cc1ccccc1)C(N)=O (stereo not drawn)")
"inactive"
>>> discrete_label("c1ccc(-c2nc3ccccc3n3c(CN4CCCCC4)nnc23)cc1")
"inactive"
>>> discrete_label("CCCC(=O)NC1CCc2cc(OC)c(OC)c(OC)c2-c2ccc(OC)c(=O)cc21 (stereo not drawn)")
"active"

Query compound follows.
Q: Given COc1ncc(C#CC(=O)c2ccccc2)c(OC)n1 , state the outcome it received in this test.
A: active
